Molecular target: Nav1.7 (or SCN9A) channel (Homo sapiens)
Construct: expressed in transfected cells
Assay: Nav1.7 Ionworks Quattro automated electrophysiology assay (HEK cells expressing hSCN9A)
Format: cell-based
Details: Ionworks assay (IW), read-out: Nav1.7 EIC50 (IW)
pIC50: −log10 of the molar value.
reported.endpoint: pIC50

compound	target.entity	reading.qualifier	observed.value
CCOc1ccccc1Oc1ccc(C(=O)NS(C)(=O)=O)cc1C#N [Example 273]	Nav1.7 (or SCN9A) channel (Homo sapiens)	=	4.35
CS(=O)(=O)NC(=O)c1ccc(Oc2cc(C(F)(F)F)ccc2Cl)cc1 [Example 207]	Nav1.7 (or SCN9A) channel (Homo sapiens)	=	4.86
CS(=O)(=O)NC(=O)c1ccc(Oc2cccc(C(F)(F)F)c2Cl)cc1 [Example 210]	Nav1.7 (or SCN9A) channel (Homo sapiens)	=	3.54
CS(=O)(=O)NC(=O)c1cc(F)c(Oc2ccccc2C#N)cc1F [Example 327]	Nav1.7 (or SCN9A) channel (Homo sapiens)	<	3.49
COc1cc(C(=O)NS(C)(=O)=O)ccc1Oc1ccc(F)c(C(F)(F)F)c1 [Example 241]	Nav1.7 (or SCN9A) channel (Homo sapiens)	=	3.84
CS(=O)(=O)NC(=O)c1ccc(Oc2ccc(C(F)(F)F)cc2)cc1C#N [Example 243]	Nav1.7 (or SCN9A) channel (Homo sapiens)	=	4.92
COc1c(C(=O)NS(C)(=O)=O)ccc(Oc2ccc(C)cc2)c1F [Example 226]	Nav1.7 (or SCN9A) channel (Homo sapiens)	=	3.52
CS(=O)(=O)NC(=O)c1ccc(Oc2ccccc2OC(F)(F)F)cc1 [Example 209]	Nav1.7 (or SCN9A) channel (Homo sapiens)	=	4.55
COc1ccc(Oc2ccc(C(=O)NS(C)(=O)=O)cc2C#N)cc1 [Example 274]	Nav1.7 (or SCN9A) channel (Homo sapiens)	=	3.56
COc1ccc(Oc2cc(F)c(C(=O)NS(C)(=O)=O)cc2Cl)cc1 [Example 301]	Nav1.7 (or SCN9A) channel (Homo sapiens)	=	4.21
Cc1ccccc1Oc1ccc(C(=O)NS(C)(=O)=O)cc1C#N [Example 275]	Nav1.7 (or SCN9A) channel (Homo sapiens)	=	3.94
CS(=O)(=O)NC(=O)c1cc(Cl)c(Oc2ccccc2Cl)cc1F [Example 300]	Nav1.7 (or SCN9A) channel (Homo sapiens)	=	5.41
CCOc1cccc(Oc2ccc(C(=O)NS(C)(=O)=O)cc2)c1 [Example 259]	Nav1.7 (or SCN9A) channel (Homo sapiens)	<	3.49
CS(=O)(=O)NC(=O)c1ccc(Oc2ccccc2C(F)(F)F)c(C#N)c1 [Example 271]	Nav1.7 (or SCN9A) channel (Homo sapiens)	<	3.49
COc1c(C(=O)NS(C)(=O)=O)ccc(Oc2ccc(Cl)c(F)c2)c1F [Example 221]	Nav1.7 (or SCN9A) channel (Homo sapiens)	=	3.52
CS(=O)(=O)NC(=O)c1ccc(Oc2ccc(F)c(C(F)(F)F)c2)cc1 [Example 208]	Nav1.7 (or SCN9A) channel (Homo sapiens)	=	4.73
CS(=O)(=O)NC(=O)c1ccc(Oc2ccccc2C#N)cc1 [Example 211]	Nav1.7 (or SCN9A) channel (Homo sapiens)	=	4.17
COc1cc(Oc2ccc(Cl)cc2)ccc1C(=O)NS(C)(=O)=O [Example 235]	Nav1.7 (or SCN9A) channel (Homo sapiens)	=	4.44

====

Biological target: Nav1.7 (or SCN9A) channel (Homo sapiens)
Construct: expressed in transfected cells
Experiment: Nav1.7 PatchXpress 7000 automated electrophysiology assay (HEK cells stably expressing hSCN9A)
Format: cell-based
Conditions: voltage-clamped at V1/2 of inactivation, read-out: Nav1.7 EIC50
pIC50: −log10 of the molar value.
Item-by-item account of pIC50

compound	reading.qualifier	pIC50
Cc1cc(C#N)cc(C)c1Oc1cc(F)c(C(=O)NS(C)(=O)=O)cc1F [Example 132]	<	5.52
CS(=O)(=O)NC(=O)c1ccc(Cc2cccc(OC(F)(F)F)c2)cc1 [Example 316]	=	5.80
Cc1cc(Oc2cc(F)c(C(=O)NS(C)(=O)=O)cc2F)ccc1F [Example 145]	=	5.92
CCc1cc(C(=O)NS(C)(=O)=O)ccc1Oc1ccc(Cl)c(Cl)c1 [Example 4]	=	6.60
Cc1cc(C(=O)NS(C)(=O)=O)c(F)cc1Oc1ccc(Cl)c(C(F)(F)F)c1 [Example 8]	=	7.46

====

Known pIC50 of a selection of compounds
Molecular target: Nav1.7 (or SCN9A) channel (Homo sapiens)
Construct: expressed in transfected cells
Assay: Nav1.7 PatchXpress 7000 automated electrophysiology assay (HEK cells stably expressing hSCN9A)
Assay type: cell-based
Conditions: voltage-clamped at V1/2 of inactivation, read-out: Nav1.7 EIC50
pIC50: −log10 of the molar value.
reported.endpoint: pIC50

substance.smiles	reading.qualifier	observed.value
Cc1cc(Cl)ccc1Oc1ccc(C(=O)NS(C)(=O)=O)cc1	=	4.74
Cc1ccccc1Oc1ccc(C(=O)NS(C)(=O)=O)cc1Cl	=	5.55
CS(=O)(=O)NC(=O)c1cc(Cl)c(Oc2ccc(Cl)c(OC(F)(F)F)c2)cc1F	=	7.49
COc1cc(Oc2ccc(Cl)c(F)c2)ccc1C(=O)NS(C)(=O)=O	=	5.27
CS(=O)(=O)NC(=O)c1c(F)cc(Oc2ccc(Cl)c(C(F)(F)F)c2)cc1F	=	5.24
CS(=O)(=O)NC(=O)c1cc(F)c(Oc2c(F)cc(F)cc2F)cc1F	<	5.52
COc1ccc(C)cc1Oc1cc(F)c(C(=O)NS(C)(=O)=O)cc1F	<	6.00
CCOc1cc(C)ccc1Oc1cc(F)c(C(=O)NS(C)(=O)=O)cc1F	<	6.00
CS(=O)(=O)NC(=O)c1ccc(Oc2cccc3ccccc23)c(C#N)c1	=	5.07

====

Biological target: Nav1.7 (or SCN9A) channel (Homo sapiens, UniProt Q15858)
Construct: expressed in transfected cells
Sequence (Q15858 whole entry): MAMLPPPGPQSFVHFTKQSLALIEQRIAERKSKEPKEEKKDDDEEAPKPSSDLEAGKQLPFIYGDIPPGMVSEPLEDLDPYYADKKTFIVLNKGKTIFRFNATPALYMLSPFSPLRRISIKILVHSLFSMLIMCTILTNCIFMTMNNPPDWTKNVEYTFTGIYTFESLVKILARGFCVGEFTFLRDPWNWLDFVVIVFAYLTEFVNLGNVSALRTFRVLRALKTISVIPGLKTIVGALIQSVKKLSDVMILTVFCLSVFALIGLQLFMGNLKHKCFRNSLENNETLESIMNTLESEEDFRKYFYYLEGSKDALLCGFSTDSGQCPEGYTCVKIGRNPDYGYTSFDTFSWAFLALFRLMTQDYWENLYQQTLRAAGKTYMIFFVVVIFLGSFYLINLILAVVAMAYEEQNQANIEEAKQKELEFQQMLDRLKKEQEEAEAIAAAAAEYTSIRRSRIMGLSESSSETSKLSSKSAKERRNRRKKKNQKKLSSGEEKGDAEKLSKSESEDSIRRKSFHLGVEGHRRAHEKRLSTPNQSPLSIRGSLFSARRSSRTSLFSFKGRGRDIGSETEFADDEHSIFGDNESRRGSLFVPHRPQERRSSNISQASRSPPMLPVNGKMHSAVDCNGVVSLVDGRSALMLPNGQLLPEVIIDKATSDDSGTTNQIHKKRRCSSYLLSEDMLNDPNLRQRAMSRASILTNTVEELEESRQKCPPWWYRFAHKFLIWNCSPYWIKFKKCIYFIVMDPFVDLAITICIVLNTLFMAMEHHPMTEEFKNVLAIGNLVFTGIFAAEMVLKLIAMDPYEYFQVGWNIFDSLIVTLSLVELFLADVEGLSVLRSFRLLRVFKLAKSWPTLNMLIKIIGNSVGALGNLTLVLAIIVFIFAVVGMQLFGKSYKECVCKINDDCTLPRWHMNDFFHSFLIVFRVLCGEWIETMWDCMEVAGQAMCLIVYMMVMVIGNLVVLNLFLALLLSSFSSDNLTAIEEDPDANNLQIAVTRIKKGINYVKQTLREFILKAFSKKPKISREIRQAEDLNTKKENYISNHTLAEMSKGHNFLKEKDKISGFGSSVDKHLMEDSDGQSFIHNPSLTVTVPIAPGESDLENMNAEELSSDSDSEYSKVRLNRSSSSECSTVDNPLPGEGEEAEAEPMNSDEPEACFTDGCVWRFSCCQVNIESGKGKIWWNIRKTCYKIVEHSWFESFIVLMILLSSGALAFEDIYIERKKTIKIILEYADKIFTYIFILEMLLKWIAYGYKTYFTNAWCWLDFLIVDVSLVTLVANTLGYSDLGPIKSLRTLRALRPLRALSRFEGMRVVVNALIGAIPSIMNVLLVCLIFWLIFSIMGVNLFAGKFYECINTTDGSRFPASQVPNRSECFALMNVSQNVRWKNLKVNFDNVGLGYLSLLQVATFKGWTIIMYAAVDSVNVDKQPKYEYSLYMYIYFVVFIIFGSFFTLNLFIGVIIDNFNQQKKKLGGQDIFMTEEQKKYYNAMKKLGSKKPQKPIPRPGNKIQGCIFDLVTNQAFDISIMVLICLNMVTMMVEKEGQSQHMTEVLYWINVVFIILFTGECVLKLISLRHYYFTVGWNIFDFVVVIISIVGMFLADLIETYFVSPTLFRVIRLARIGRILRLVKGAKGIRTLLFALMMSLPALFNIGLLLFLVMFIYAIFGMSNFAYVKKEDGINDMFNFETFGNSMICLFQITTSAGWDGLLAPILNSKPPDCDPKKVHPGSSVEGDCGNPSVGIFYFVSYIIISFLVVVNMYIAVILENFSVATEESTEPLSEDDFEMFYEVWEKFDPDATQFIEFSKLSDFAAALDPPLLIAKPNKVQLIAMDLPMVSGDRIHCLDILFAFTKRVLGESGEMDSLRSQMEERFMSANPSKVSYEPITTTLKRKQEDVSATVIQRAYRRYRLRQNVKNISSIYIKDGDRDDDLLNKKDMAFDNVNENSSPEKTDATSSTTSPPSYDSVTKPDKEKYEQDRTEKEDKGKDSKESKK
Assay: Nav1.7 PatchXpress 7000 automated electrophysiology assay (HEK cells stably expressing hSCN9A)
Assay type: cell-based
Conditions: voltage-clamped at V1/2 of inactivation, read-out: Nav1.7 EIC50
pIC50: −log10 of the molar value.
Overview of reported pIC50 across a group of compounds:
reported.endpoint: pIC50

substance.smiles	reading.qualifier	observed.value
CS(=O)(=O)NC(=O)c1ccc(Oc2cccc(F)c2F)cc1	=	4.66
CS(=O)(=O)NC(=O)c1ccc(Sc2ccccc2Cl)cc1	=	4.44
CCc1cc(F)ccc1Oc1cc(F)c(C(=O)NS(C)(=O)=O)cc1Cl	=	6.43
CS(=O)(=O)NC(=O)c1cc(F)c(Oc2c(F)cccc2F)cc1F	<	5.52
CC(C)c1ccccc1Oc1cc(F)c(C(=O)NS(C)(=O)=O)cc1F	<	6.00

====

Reported pIC50 values for the following compounds.
Biological target: Nav1.7 (or SCN9A) channel (Homo sapiens)
Construct: expressed in transfected cells
Assay: Nav1.7 PatchXpress 7000 automated electrophysiology assay (HEK cells stably expressing hSCN9A)
Type: cell-based
Conditions: voltage-clamped at V1/2 of inactivation, read-out: Nav1.7 EIC50
pIC50: −log10 of the molar value.

compound	target.entity	pIC50
CS(=O)(=O)NC(=O)c1cc(Cl)c(Oc2cccc(Cl)c2)cc1F [Example 292]	Nav1.7 (or SCN9A) channel (Homo sapiens)	6.21
CS(=O)(=O)NC(=O)c1cc(F)c(Oc2ccc(Cl)c(Cl)c2)cc1F [Example 21]	Nav1.7 (or SCN9A) channel (Homo sapiens)	6.35
CS(=O)(=O)NC(=O)c1cc(F)c(Oc2ccc(Cl)cc2)cc1F [Example 129]	Nav1.7 (or SCN9A) channel (Homo sapiens)	5.89
COc1c(C(=O)NS(C)(=O)=O)ccc(Oc2ccc(Cl)c(C(F)(F)F)c2)c1F [Example 78]	Nav1.7 (or SCN9A) channel (Homo sapiens)	5.38
COc1cc(Cl)ccc1Cc1cc(F)c(C(=O)NS(C)(=O)=O)cc1F [Example 319]	Nav1.7 (or SCN9A) channel (Homo sapiens)	5.60

====

Target: Nav1.7 (or SCN9A) channel (Homo sapiens)
Construct: expressed in transfected cells
Assay: Nav1.7 PatchXpress 7000 automated electrophysiology assay (HEK cells stably expressing hSCN9A)
Format: cell-based
Details: voltage-clamped at V1/2 of inactivation, read-out: Nav1.7 EIC50
Description: The ability of the compounds of formula (I) to block the Nav1.7 (or SCN9A) channel was measured using the assays described below. […] HEK cells stably transfected with hSCN9A were viewed under Hoffman contrast optics and placed in front of an array of flow pipes emitting either control or compound-containing extracellular solutions. […] The voltage-dependence of inactivation was determined by applying a series of depolarizing prepulses (8 sec long in 10 mV increments) from a negative holding potential. […]
pIC50: −log10 of the molar value.
reported.endpoint: pIC50

compound	reading.qualifier	observed.value
CS(=O)(=O)NC(=O)c1ccc(Oc2ccc(Cl)cc2)c(F)c1 [Example 229]	=	5.92
CS(=O)(=O)NC(=O)c1ccc(Oc2ccc(Cl)c(C(F)(F)F)c2)c(C#N)c1 [Example 62]	=	6.05
CS(=O)(=O)NC(=O)c1cc(F)c(Oc2ccc(F)cc2Cl)cc1F [Example 120]	<	5.52
CS(=O)(=O)NC(=O)c1cc(F)c(Oc2ccc(F)cc2C#N)cc1F [Example 130]	<	5.52
CS(=O)(=O)NC(=O)c1cc(Cl)c(Oc2ccc(Cl)c(OC(F)F)c2)cc1F [Example 48]	=	6.68
CS(=O)(=O)NC(=O)c1ccc(Oc2ccc(Cl)cc2)cc1 [Example 24]	=	5.24
COc1ccc(Oc2ccc(C(=O)NS(C)(=O)=O)cc2)c(F)c1F [Example 196]	=	4.96
Cc1ccc(Oc2ccc(C(=O)NS(C)(=O)=O)cc2)cc1Cl [Example 198]	=	5.85
CS(=O)(=O)NC(=O)c1cc(F)c(Oc2cc(F)ccc2F)cc1F [Example 89]	<	5.52
Cc1ccccc1Oc1ccc(C(=O)NS(C)(=O)=O)cc1 [Example 191]	<	5.00
COc1ccc(Oc2ccc(C(=O)NS(C)(=O)=O)cc2)c(Cl)c1 [Example 183]	<	5.00
Cc1ccc(Oc2ccc(C(=O)NS(C)(=O)=O)cc2Cl)cc1 [Example 215]	=	5.89
COc1cc(Cl)ccc1Oc1ccc(C(=O)NS(C)(=O)=O)cc1C#N [Example 63]	<	5.52
COc1cc(F)ccc1Oc1cc(F)c(C(=O)NS(C)(=O)=O)cc1F [Example 69]	=	5.21
COc1ccc(Cl)cc1Oc1cc(F)c(C(=O)NS(C)(=O)=O)cc1F [Example 67]	=	5.30
Cn1nccc1-c1cc(Cl)ccc1Oc1cc(F)c(C(=O)NS(C)(=O)=O)cc1Cl [Example 80]	<	5.52
CS(=O)(=O)NC(=O)c1cc(F)c(Oc2cccc(Cl)c2Cl)cc1F [Example 87]	=	5.16
COc1cc(Oc2ccc(Cl)c(C(F)(F)F)c2)ccc1C(=O)NS(C)(=O)=O [Example 326]	=	5.39
CCC(C)S(=O)(=O)NC(=O)c1cc(F)c(Oc2ccc(Cl)c(C(F)(F)F)c2)cc1F (stereo not drawn) [Example 58]	=	6.37
O=C(NS(=O)(=O)C1CC1)c1ccc(Oc2ccc(Cl)c(C(F)(F)F)c2)cc1 [Example 1]	=	6.09
CCOc1ccc(Oc2ccc(C(=O)NS(C)(=O)=O)cc2)cc1 [Example 253]	=	5.60
CS(=O)(=O)NC(=O)c1ccc(Oc2ccc3ccccc3c2)c(Cl)c1 [Example 246]	=	6.31
CS(=O)(=O)NC(=O)c1cc(F)c(Oc2ccc(Cl)cc2Cl)cc1F [Example 123]	=	5.70
CS(=O)(=O)NC(=O)c1cc(F)c(Oc2ccc(Cl)c(OC(F)(F)F)c2)cc1F [Example 56]	=	6.70
COc1cc(C(=O)NS(C)(=O)=O)ccc1Oc1ccc(Cl)c(C(F)(F)F)c1 [Example 59]	=	5.40
CS(=O)(=O)NC(=O)c1ccc(Oc2cccc(C#N)c2)c(Cl)c1 [Example 264]	=	5.15
COc1ccc(Cl)c(Oc2cc(F)c(C(=O)NS(C)(=O)=O)cc2F)c1 [Example 109]	<	6.00
CCS(=O)(=O)NC(=O)c1ccc(Oc2cccc(F)c2)cc1 [Example 306]	=	4.60
COc1cccc(Oc2cc(F)c(C(=O)NS(C)(=O)=O)cc2F)c1 [Example 134]	<	5.52
Cc1cc(Oc2cc(F)c(C(=O)NS(C)(=O)=O)cc2F)cc(C)c1C#N [Example 112]	<	5.52
CS(=O)(=O)NC(=O)c1cc(Cl)c(Oc2ccc3ccccc3c2)cc1F [Example 285]	=	7.24
CS(=O)(=O)NC(=O)c1ccc(Oc2ccc(Cl)c(C(F)(F)F)c2)c(Cl)c1F [Example 320]	=	5.74
CCOc1ccc(Oc2cc(F)c(C(=O)NS(C)(=O)=O)cc2Cl)cc1 [Example 294]	=	6.80
CCOc1ccccc1Oc1cc(F)c(C(=O)NS(C)(=O)=O)cc1Cl [Example 288]	=	5.70
CS(=O)(=O)NC(=O)c1ccc(Oc2ccc(C(F)(F)F)cc2-c2ccnnc2)cc1 [Example 50]	<	5.52
COc1cc(Oc2ccc(F)c(C)c2)ccc1C(=O)NS(C)(=O)=O [Example 216]	=	4.96
